test: Selectivity index, ratio of CC50 for cytotoxicity against African green monkey Vero E6 cells to EC50 for antiviral activity against SARS-COV2/NL/2020 infected in African green monkey Vero E6 cells; format: toxicity, cell-based, Vero C1008; conditions: read-out: Ratio CC50/EC50
Property name: selectivity ratio

Example entries and their recorded answers appear below.
# Compound, Property name, Reported
records = [
    ("COc1ccc2c(c1)c(CC(=O)NCCCCCCC(=O)N[C@H](C(=O)N1C[C@H](O)C[C@H]1C(=O)N[C@@H](C)c1ccc(-c3scnc3C)cc1)C(C)(C)C)c(C)n2C(=O)c1ccc(Cl)cc1", "selectivity ratio", "> 11"),
    ("COc1ccc2c(c1)c(CC(=O)NCCN1CCN(C(=O)CCC(=O)N[C@H](C(=O)N3C[C@H](O)C[C@H]3C(=O)N[C@@H](C)c3ccc(-c4scnc4C)cc3)C(C)(C)C)CC1)c(C)n2C(=O)c1ccc(Cl)cc1", "selectivity ratio", "> 12"),
    ("CCC(CC)COC(=O)[C@H](C)N[P@](=O)(OC[C@H]1O[C@@](C#N)(c2ccc3c(N)ncnn23)[C@H](O)[C@@H]1O)Oc1ccccc1 [REMDESIVIR]", "selectivity ratio", 2490),
    ("COc1ccc2c(c1)c(CC(=O)NCCOCCOCC(=O)N[C@H](C(=O)N1C[C@H](O)C[C@H]1C(=O)N[C@@H](C)c1ccc(-c3scnc3C)cc1)C(C)(C)C)c(C)n2C(=O)c1ccc(Cl)cc1", "selectivity ratio", "> 4"),
    ("COc1ccc2c(c1)c(CC(=O)O)c(C)n2C(=O)c1ccc(Cl)cc1 [INDOMETHACIN]", "selectivity ratio", "> 5"),
]

Please examine the following record next.
In: // Input: `COc1ccc2c(c1)c(CC(=O)NCCCCC(=O)N[C@H](C(=O)N1C[C@H](O)C[C@H]1C(=O)N[C@@H](C)c1ccc(-c3scnc3C)cc1)C(C)(C)C)c(C)n2C(=O)c1ccc(Cl)cc1` . Output its selectivity ratio only.
Out: > 4

* * *

Below is a list of entries, each paired with its recorded EC50 value.
test system: SARS-CoV-2; experiment: Antiviral activity against SARS-CoV-2/NL/2020 infected in African green monkey Vero E6 cells assessed as inhibition of plaque formation measured after 3 days by Plaque reduction assay; type: functional, organism-based; details: Severe acute respiratory syndrome coronavirus 2, NL/2020, Vero C1008, 72 h
Output spec: scalar in µM, unitless text.

Example entries and their recorded answers appear below.
# Smiles representation, Reported
measured = [
    ("COc1ccc2c(c1)c(CC(=O)NCCCCCCC(=O)N[C@H](C(=O)N1C[C@H](O)C[C@H]1C(=O)N[C@@H](C)c1ccc(-c3scnc3C)cc1)C(C)(C)C)c(C)n2C(=O)c1ccc(Cl)cc1", 18.1),
    ("CCC(CC)COC(=O)[C@H](C)N[P@](=O)(OC[C@H]1O[C@@](C#N)(c2ccc3c(N)ncnn23)[C@H](O)[C@@H]1O)Oc1ccccc1", 0.15),
    ("COc1ccc2c(c1)c(CC(=O)NCCN1CCN(C(=O)CCC(=O)N[C@H](C(=O)N3C[C@H](O)C[C@H]3C(=O)N[C@@H](C)c3ccc(-c4scnc4C)cc3)C(C)(C)C)CC1)c(C)n2C(=O)c1ccc(Cl)cc1", 21.5),
]

In: Tell me EC50 of `COc1ccc2c(c1)c(CC(=O)O)c(C)n2C(=O)c1ccc(Cl)cc1` when tested on SARS-CoV-2.
Out: 94.9
